# protocol: folding enthalpy; higher = less favourable; fluorescence melt of hairpins on a sequencing array, two-state fit
# setup conditions: sodium 0.088 M
The reader will find reported folding enthalpy values listed item by item below.
Give your result in kcal/mol as a bare value.

In [3]: df
Out[3]:
                         sequence_record  reported
0  GCCCACGAAAGTGGTGGC ((((((....)))..)))     -13.8
1  GCTGCACGAAAGTGAAGC (((.(((....))).)))       -36
2  GCGTCAGCGAAAGCTCGC (((..(((....))))))     -10.1
3  GCTTAGCGAAAGCAAGGC ((.(.((....)).).))     -13.5
4  GTAAGACCGAAAGGTTAC (((..(((....))))))     -13.8
5  GTGGGAGGAAACTTCCAC ((((.((....)).))))     -41.1

Challenge: Look up folding enthalpy for this sequence: GATCGTACTAACGATC ((((((....))))))
Response given: -39.1

Challenge: Please answer likewise for GATCGATTACTCGATC ((((((....))))))
Response given: -47.6

Challenge: Please answer likewise for GATCTGGTCCCAGATC ((((((....))))))
Response given: -39.6
